EC50 reference
# testSystem: T1, recombinant mouse VISTA (His-tagged) (mouse, UniProt Q9D659 33-191)
# T1 construct: also called murine VISTA; mVISTA
# T1 sequence (looked up): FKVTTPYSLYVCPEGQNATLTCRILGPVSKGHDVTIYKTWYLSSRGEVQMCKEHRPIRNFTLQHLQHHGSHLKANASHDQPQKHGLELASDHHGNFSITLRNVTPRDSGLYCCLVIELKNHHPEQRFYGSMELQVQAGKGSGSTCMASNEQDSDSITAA
# protocol: ELISA, plate coated with mouse VISTA; unit nM from the legend paragraph 698
Give the quantity in nM, number only.

Example binders with recorded EC50:
>  <binder>
anti-VISTA clone V4-C28 IgG1 (antibody, V domains shown) VH: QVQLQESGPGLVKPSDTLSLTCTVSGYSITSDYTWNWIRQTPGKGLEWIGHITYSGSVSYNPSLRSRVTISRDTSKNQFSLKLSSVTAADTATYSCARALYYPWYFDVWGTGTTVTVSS VL: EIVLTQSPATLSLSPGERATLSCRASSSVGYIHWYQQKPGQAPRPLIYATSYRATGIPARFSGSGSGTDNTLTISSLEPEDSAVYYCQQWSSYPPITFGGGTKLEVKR

>  <EC50 (nM)>
0.064

$$$$
>  <binder>
anti-VISTA clone V4-C1 IgG1 (antibody, V domains shown) VH: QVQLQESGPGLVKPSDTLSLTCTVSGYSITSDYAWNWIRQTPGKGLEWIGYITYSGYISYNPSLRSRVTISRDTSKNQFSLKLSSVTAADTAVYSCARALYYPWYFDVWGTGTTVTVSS VL: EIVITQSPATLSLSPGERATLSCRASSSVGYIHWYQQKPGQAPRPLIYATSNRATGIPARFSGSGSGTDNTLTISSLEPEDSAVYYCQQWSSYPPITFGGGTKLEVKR

>  <EC50 (nM)>
1.6

$$$$
>  <binder>
anti-VISTA clone V4-C24 IgG1 (antibody, V domains shown) VH: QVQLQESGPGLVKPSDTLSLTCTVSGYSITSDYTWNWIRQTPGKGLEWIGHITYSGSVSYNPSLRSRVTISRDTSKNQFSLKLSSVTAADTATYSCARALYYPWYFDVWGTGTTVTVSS VL: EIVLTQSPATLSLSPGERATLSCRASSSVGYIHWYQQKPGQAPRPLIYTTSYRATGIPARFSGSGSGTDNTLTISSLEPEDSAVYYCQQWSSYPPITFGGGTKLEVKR

>  <EC50 (nM)>
0.042

$$$$
>  <binder>
anti-VISTA clone V4-C27 IgG1 (antibody, V domains shown) VH: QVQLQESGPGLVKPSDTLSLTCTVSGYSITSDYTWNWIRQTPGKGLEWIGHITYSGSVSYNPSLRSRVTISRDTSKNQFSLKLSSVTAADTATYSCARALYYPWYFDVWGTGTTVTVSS VL: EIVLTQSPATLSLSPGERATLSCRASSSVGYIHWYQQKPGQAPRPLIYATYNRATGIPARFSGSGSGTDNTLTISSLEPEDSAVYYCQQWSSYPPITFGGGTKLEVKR

>  <EC50 (nM)>
0.047

$$$$
>  <binder>
anti-VISTA clone V4-C9 IgG1 (antibody, V domains shown) VH: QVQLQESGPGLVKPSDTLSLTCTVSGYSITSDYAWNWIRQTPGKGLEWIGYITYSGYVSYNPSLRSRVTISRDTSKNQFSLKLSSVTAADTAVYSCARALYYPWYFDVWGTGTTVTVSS VL: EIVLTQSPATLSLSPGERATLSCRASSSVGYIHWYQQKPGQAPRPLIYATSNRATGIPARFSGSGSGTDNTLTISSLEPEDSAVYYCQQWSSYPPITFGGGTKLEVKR

>  <EC50 (nM)>
0.044

$$$$

Exercise: EC50 lookup needed for anti-VISTA clone V4-C30 IgG1 (antibody, V domains shown) VH: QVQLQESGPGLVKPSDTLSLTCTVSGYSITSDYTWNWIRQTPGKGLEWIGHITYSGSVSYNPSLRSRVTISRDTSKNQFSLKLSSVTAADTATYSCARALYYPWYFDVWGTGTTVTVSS VL: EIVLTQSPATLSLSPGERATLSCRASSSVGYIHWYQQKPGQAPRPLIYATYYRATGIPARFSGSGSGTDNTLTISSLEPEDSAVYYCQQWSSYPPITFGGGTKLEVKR , thanks.
Key: 0.123

Exercise: Also need anti-VISTA clone V4-C31 IgG1 (antibody, V domains shown) VH: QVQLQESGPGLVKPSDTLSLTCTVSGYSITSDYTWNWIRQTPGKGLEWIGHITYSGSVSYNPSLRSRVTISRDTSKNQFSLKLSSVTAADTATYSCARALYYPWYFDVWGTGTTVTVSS VL: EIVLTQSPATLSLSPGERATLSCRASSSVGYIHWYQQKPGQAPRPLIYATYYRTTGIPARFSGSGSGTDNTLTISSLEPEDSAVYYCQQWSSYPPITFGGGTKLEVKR , thanks.
Key: 0.028
